# ASSAYED TARGET: BCRP (hBCRP) (Homo sapiens, UniProt Q9UNQ0)
# Construct: expressed in transfected cells; host or cells: MDCKII (canine kidney) cells, canine P-gp knockout, transfected with BCRP
# Sequence (Q9UNQ0 whole entry): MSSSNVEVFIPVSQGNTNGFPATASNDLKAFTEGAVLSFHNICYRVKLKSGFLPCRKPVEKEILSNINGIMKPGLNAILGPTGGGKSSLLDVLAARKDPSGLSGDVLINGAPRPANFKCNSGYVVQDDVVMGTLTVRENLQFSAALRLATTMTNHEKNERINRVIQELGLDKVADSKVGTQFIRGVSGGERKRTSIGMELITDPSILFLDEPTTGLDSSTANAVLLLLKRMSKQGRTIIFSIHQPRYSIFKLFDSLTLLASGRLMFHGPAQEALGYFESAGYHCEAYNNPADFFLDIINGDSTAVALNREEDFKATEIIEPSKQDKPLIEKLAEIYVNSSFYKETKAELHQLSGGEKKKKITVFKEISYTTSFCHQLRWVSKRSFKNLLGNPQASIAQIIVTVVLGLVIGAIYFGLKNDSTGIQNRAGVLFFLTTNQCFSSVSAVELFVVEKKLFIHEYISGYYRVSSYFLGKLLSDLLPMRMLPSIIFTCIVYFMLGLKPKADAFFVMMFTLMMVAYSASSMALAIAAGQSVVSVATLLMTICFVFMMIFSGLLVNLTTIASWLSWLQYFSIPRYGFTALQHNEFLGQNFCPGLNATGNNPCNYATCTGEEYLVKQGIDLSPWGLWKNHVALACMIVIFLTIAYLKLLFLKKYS
# EXPERIMENT DESCRIPTION: Efflux ratio in BCRP transfected MDCKII canine P-gp knockout cells
# Type: in vitro ADME
# TEST PARAMETERS: Papp(B−A)/Papp(A−B), read-out: Efflux ratio MDCKII-hBCRP knock-in,canine pg-P KO
REPORTED ENDPOINT: efflux ratio at 2 h, 1 μM

Examples with answers:
> print(dat)
                                   molecule          reported.endpoint  data.value
1  CC(C)ON1CCc2cc(=O)n(C)c(Nc3ccc(I)cc3F)c2C1=O  efflux ratio at 2 h, 1 μM         1.4
2  CC1CNC(=O)c2c1cc(=O)n(C)c2Nc1ccc(Br)cc1F (stereo not drawn)  efflux ratio at 2 h, 1 μM           1
3  Cn1c(Nc2ccc(Br)cc2F)c2c(c(Br)c1=O)CCN(OCCO)C2=O  efflux ratio at 2 h, 1 μM         3.3
4  Cc1c2c(c(Nc3ccc(C4CC4)cc3F)n(C)c1=O)C(=O)N(OCCO)CC2  efflux ratio at 2 h, 1 μM         1.3
5  CSc1ccc(Nc2c3c(cc(=O)n2C)C(c2ccccc2)CNC3=O)c(F)c1 (stereo not drawn)  efflux ratio at 2 h, 1 μM         0.8

a = Cc1c2c(c(Nc3ccc(Br)cc3F)n(C)c1=O)C(=O)N(OCCO)CC2
b = Cn1c(Nc2ccc(Br)cc2F)c2c(cc1=O)CCN(C1CC1)C2=O
c = CC(C)c1ccc(Nc2c3c(cc(=O)n2C)CCN(OCCO)C3=O)c(F)c1
d = Cn1c(Nc2ccc(Br)cc2Cl)c2c(cc1=O)CCN(OCCO)C2=O
(Q) Sort the 4 molecules by efflux ratio at 2 h, 1 μM; largest first, smallest last. # respond with the labels, arranged in the requested order
(A) d, a, c, b

Every entry's value here was drawn from patent US11802127B2.
